Provenance of the data: the supplement of paper PMC10883282

Test system: HS729
Method Summary: standardised AUC of viability dose-response curve (72 h) (fraction (0-1)); higher = less growth inhibition (more resistant)
Entries are grouped by standardised AUC into these classes: low = under 0.8, intermediate = from 0.8 up to 0.9, high = 0.9 and over

Below, 4 compounds whose answers are already recorded.
Compound	System Under Test	Label
CCc1nc(C(N)=O)c(Nc2ccc(N3CCC(N4CCN(C)CC4)CC3)c(OC)c2)nc1NC1CCOCC1	HS729	low
CNC(=O)c1cccc2cc(Oc3ccnc4cc(OCC5(N)CC5)c(OC)cc34)ccc12	HS729	intermediate
Cc1cc2c(F)c(Oc3ncnn4cc(OC[C@@H](C)OC(=O)[C@H](C)N)c(C)c34)ccc2[nH]1 [BRIVANIB ALANINATE]	HS729	high
CCOc1cc2ncc(C#N)c(Nc3ccc(OCc4ccccn4)c(Cl)c3)c2cc1NC(=O)/C=C/CN(C)C	HS729	intermediate

Exam item: Pick a category. Item: C=CC(=O)N1CCC(CNc2ncnc(N)c2-c2ccc(Oc3ccccc3)cc2)CC1
Marked response: high

Exam item: Pick a category. Item: CS(=O)(=O)CCNCc1ccc(-c2ccc3ncnc(Nc4ccc(OCc5cccc(F)c5)c(Cl)c4)c3c2)o1
Marked response: high

Exam item: Pick a category. Item: CCN1CCN(c2ccc(Nc3cc(N(C)C(=O)Nc4c(Cl)c(OC)cc(OC)c4Cl)ncn3)cc2)CC1
Marked response: low

---

Tested on: RD-ES
Method Summary: relative viability vs DMSO control (72 h) (fraction); higher = more viable cells
Run Conditions: 3.333 µM
Measured Property: relative viability

Cn1cnc2c(F)c(Nc3ccc(Br)cc3Cl)c(C(=O)NOCCO)cc21 0.933
CN(C)C(=O)c1cc2cnc(Nc3ccc(N4CCNCC4)cn3)nc2n1C1CCCC1 0.602
C[C@@H]1CN(C(=O)c2ccc(NC(=O)c3cc(O[C@H](C)c4c(Cl)ccc(F)c4Cl)c(N)nn3)cc2)C[C@H](C)N1 0.0894
C#Cc1cccc(Nc2ncnc3cc4c(cc23)OCCOCCOCCO4)c1 0.977
CN(C)C/C=C/C(=O)Nc1cc2c(Nc3ccc(F)c(Cl)c3)ncnc2cc1O[C@H]1CCOC1 0.381

Exam item: Entry CN(C)CCCOc1ccc(-c2ccc3ncc4c(c3c2)n(C2CCOCC2)c(=O)n4C)cn1 , system RD-ES: what relative viability was measured?
Marked response: 0.548

---

Recorded relative viability by entry
Test system: KHOS-240S
Method Summary: relative viability vs DMSO control (72 h) (fraction); higher = more viable cells
Run Conditions: 0.3704 µM

CS(=O)(=O)CCNCc1ccc(-c2ccc3ncnc(Nc4ccc(OCc5cccc(F)c5)c(Cl)c4)c3c2)o1 1.09
C=CC(=O)N1CCC(CNc2ncnc(N)c2-c2ccc(Oc3ccccc3)cc2)CC1 1.07
COC(=O)c1ccc2c(c1)NC(=O)/C2=C(\Nc1ccc(N(C)C(=O)CN2CCN(C)CC2)cc1)c1ccccc1 0.875

Here is the next item to consider.
Exam item: What value of relative viability has been recorded for this entry: C[C@@H]1CN(C(=O)c2ccc(NC(=O)c3cc(O[C@H](C)c4c(Cl)ccc(F)c4Cl)c(N)nn3)cc2)C[C@H](C)N1
Marked response: 0.994

---

Test system: SW684
Method Summary: relative viability vs DMSO control (72 h) (fraction); higher = more viable cells
Run Conditions: 0.00457 µM
Measured Property: relative viability
Respond numerically, and do not add a unit to the figure.

Some entries whose results are on file:
Compound	System Under Test	Measured Property	Reported Result
CN(C)C/C=C/C(=O)Nc1cc2c(Nc3ccc(F)c(Cl)c3)ncnc2cc1O[C@H]1CCOC1	SW684	relative viability	1.18
Cc1[nH]c(/C=C2\C(=O)Nc3ccccc32)c(C)c1CCC(=O)O [Orantinib]	SW684	relative viability	1.23
Cc1cc(F)c(C(=O)Nc2cccc(-c3nncn3C(C)C)n2)cc1-n1cnc(C2CC2)c1	SW684	relative viability	1.15

Exam item: What value of relative viability has been recorded for this entry: CCOc1cc2ncc(C#N)c(Nc3ccc(OCc4ccccn4)c(Cl)c3)c2cc1NC(=O)/C=C/CN(C)C
Marked response: 1.13
